target: human activated blood coagulation factor X (Homo sapiens, UniProt P00742); construct: purchased Calbiochem Corporation; experiment: Measurement of inhibitory activity for activated blood coagulation factor X (chromogenic substrate S-2222); type: biochemical; conditions: IC50, concentration showing 50 % inhibition of control; 10 minutes at 37 °C, pH 8.4; read-out: Inhibitory activity for activated blood coagulation factor X
Sequence (P00742 235-488 limits assumed): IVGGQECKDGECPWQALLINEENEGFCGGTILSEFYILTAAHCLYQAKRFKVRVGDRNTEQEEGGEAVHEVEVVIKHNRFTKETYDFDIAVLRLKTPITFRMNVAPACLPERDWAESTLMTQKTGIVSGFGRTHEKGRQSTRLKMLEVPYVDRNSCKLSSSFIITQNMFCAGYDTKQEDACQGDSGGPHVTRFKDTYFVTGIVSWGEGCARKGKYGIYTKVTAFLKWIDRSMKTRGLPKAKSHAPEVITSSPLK
Sequence (P00742 41-179 partner limits assumed): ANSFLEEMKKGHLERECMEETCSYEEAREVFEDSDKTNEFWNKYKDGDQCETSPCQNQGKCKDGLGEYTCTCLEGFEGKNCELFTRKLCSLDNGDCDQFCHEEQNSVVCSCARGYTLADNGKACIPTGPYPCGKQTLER
Where a name gives a salt, the structure may show the parent alone.
metric: IC50 (nM)

Some compounds with known IC50 results, for comparison:
compound="CC(=N)N1CCC(c2ccc(NC(=O)CN(Cc3nc[nH]c3C)c3cccc(C(=N)N)c3)cc2)CC1.Cl.Cl [Compound 74, dihydrochloride]" assay_value=19
compound="CC(=N)N1CCC(c2ccc(NC(=O)CN(CC=C(C)C)c3cccc(C(=N)N)c3)cc2)CC1.Cl.Cl [Compound 55, dihydrochloride]" assay_value=4
compound="CC(C)=CCN(CC(=O)Nc1ccc(OC(C)C)cc1)c1cccc(C(=N)N)c1.Cl [Compound 22, hydrochloride]" assay_value=15

I = CC(=N)N1CCC(c2ccc(NC(=O)CN(Cc3cccc(O)c3)c3cccc(C(=N)N)c3)cc2)CC1.Cl.Cl [Compound 52, dihydrochloride]
II = CC(=N)N1CCC(c2ccc(NC(=O)CN(Cc3cccc4ccccc34)c3cccc(C(=N)N)c3)cc2)CC1 [Compound 65, dihydrochloride]
III = CC(=N)N1CCC(Oc2ccc(NC(=O)CNc3cccc(C(=N)N)c3)cc2)CC1 [Compound 79, dihydrochloride]
Would you mind ranking these compounds by ascending IC50? # list labels per requested ordering II, I, III
